- Tested On: T1, shFcRn (soluble human FcRn) (human, UniProt P55899 24-297; P61769 21-119)
- T1 construct: extracellular domain; Printed only as 'soluble human FcRn'; also called hFcRn (immobilized on a chip)
- T1 sequence (P55899 24-297 limits assumed, chain 1 of 2): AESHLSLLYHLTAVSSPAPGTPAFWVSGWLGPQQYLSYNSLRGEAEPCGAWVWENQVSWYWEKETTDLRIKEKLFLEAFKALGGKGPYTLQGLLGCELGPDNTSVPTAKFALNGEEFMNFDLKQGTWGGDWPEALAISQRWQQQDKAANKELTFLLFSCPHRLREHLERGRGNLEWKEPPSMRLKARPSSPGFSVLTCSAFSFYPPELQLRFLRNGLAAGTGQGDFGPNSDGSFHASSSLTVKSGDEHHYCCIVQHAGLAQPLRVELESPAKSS
- T1 sequence (P61769 21-119 limits assumed, chain 2 of 2): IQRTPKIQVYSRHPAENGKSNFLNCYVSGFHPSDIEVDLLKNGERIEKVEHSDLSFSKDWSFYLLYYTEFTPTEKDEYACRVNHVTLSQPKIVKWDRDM
- Assay Method Text: SPR, shFcRn immobilized on chip, antibody as analyte, pH 7.4;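 also: kinetics fitted with a 1:1 Langmuir model, association 200 s and dissociation 600 s in PBST, double-referenced against buffer-only and interspot signals, values averaged over repeated runs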
Property Label: Kd (nM)
Numbers only here, please. The scale is nM.

Here's what some known entries look like.
HL161AN variant No. 7 (LC:N25S, HC:C32S Q82T) (antibody, human IgG1, V domains shown, Variable domains only) VL: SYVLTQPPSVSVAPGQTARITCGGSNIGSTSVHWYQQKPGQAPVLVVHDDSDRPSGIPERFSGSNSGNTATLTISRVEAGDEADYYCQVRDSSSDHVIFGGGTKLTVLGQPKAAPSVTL VH: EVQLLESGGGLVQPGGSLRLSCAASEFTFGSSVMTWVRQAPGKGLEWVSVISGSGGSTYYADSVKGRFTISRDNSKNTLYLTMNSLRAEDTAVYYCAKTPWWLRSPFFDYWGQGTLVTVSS    0.187
HL161AN variant No. 1 (LC:N25S, HC:C32S) (antibody, V domains shown, also called HL161ANS; #1 (HL161ANS)) VL: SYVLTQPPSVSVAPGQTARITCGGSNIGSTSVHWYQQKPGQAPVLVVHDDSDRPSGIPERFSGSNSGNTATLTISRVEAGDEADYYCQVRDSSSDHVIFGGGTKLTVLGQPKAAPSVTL VH: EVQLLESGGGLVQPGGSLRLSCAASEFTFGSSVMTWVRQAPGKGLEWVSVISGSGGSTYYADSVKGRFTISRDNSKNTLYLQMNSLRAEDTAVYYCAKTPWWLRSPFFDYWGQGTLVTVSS    0.122
HL161AN (antibody, human IgG1, V domains shown, also called HL161AN RS) VL: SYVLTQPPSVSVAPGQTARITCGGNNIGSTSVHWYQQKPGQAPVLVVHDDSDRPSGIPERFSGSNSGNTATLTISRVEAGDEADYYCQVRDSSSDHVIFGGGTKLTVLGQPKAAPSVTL VH: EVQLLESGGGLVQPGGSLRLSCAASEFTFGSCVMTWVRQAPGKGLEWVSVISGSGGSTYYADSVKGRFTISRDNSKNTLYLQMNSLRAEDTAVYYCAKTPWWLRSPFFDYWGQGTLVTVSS    0.294

## Task Request the reported Kd associated with HL161AN variant No. 17 (LC:N25Q, HC:C32S Q82S) (antibody, human IgG1, V domains shown, Variable domains only) VL: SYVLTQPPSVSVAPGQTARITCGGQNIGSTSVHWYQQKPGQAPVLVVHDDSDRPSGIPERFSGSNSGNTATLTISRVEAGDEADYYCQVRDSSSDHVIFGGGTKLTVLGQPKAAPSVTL VH: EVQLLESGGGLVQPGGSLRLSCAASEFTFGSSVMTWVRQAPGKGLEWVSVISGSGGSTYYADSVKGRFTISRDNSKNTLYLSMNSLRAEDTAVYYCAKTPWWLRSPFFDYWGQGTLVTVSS
## Result 0.249
